Overview of reported Population Mitochondria Different-Phenotype (%) across a group of compounds:
test system: U2OS; assay: Multiplex assay against U2OS; assay type: toxicity, cell-based; conditions: human, 12 h, 1 µM, compound concentration 1 uM, replicate 1
readout_name: Population Mitochondria Different-Phenotype (%)

>  <compound>
CC(C)Oc1ccc(C(=O)N[C@H](CNC(=O)CN(C)C)Cc2ccc(-c3cn4cccc([C@H](C)O)c4n3)cc2)cc1Cl [GSK-923295A]

>  <reading>
23

$$$$
>  <compound>
Cl.Cl.Nc1ncnc2c1c(-c1cccc(OCc3ccccc3)c1)cn2[C@H]1C[C@@H](CN2CCC2)C1

>  <reading>
58

$$$$
>  <compound>
CN(C)CCOc1ccc(-c2nc(-c3ccncc3)c(-c3ccc4c(c3)CC/C4=N\O)[nH]2)cc1

>  <reading>
30

$$$$
>  <compound>
CC(C)N1CCC(C)(C)c2cc(C#Cc3ccc(C(=O)O)cc3)ccc21

>  <reading>
4

$$$$
>  <compound>
CCCn1c(=O)c2[nH]c(C34CC5CC(CC3C5)C4)nc2n(CCC)c1=O

>  <reading>
8

$$$$
>  <compound>
CC(C)(C)c1cnc(CSc2cnc(NC(=O)C3CCNCC3)s2)o1

>  <reading>
17

$$$$
>  <compound>
Cl.Cl.NC1(c2ccc(-c3nc4ccn5c(=O)[nH]nc5c4cc3-c3ccccc3)cc2)CCC1

>  <reading>
13

$$$$
>  <compound>
CNC(=O)c1cc(Oc2ccc(NC(=O)Nc3cc(C(C)(C)C)nn3-c3ccc4ncccc4c3)c(F)c2)ccn1

>  <reading>
15

$$$$
>  <compound>
CC(=O)c1cc(-c2cc(C(=O)NC3CC3)ccc2C)c2ncccn12

>  <reading>
8

$$$$
>  <compound>
CNc1oc(-c2cccc3ccccc23)nc1C#N

>  <reading>
9

$$$$
>  <compound>
CCOc1cc(N2CCC(O)CC2)ccc1Nc1ncc2c(n1)N(C1CCCC1)CCC(=O)N2C

>  <reading>
14

$$$$

These measurements were taken from ChEMBL document CHEMBL4689842.
